B1: DYRK1B (parent)
chain: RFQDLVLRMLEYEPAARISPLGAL

Variants of: B1
Assay: protein stability index of a GFP-peptide fusion (GPS, HEK-293T) (PSI 1-6); higher = more stable;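 further: lentivirally expressed fusions sorted by FACS into six bins by GFP to DsRed ratio, PSI derived from sequencing read proportions per bin multiplied by bin number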
Conditions: c terminus: a fixed tail appended
Rule: protein stability index of 2 or more gives 1; anything lower gives 0.

Solved cases below.
>>> df
   mutation_label  cat
0             Q3E    1
1            L21E    0
2            L10N    0
3            E13D    1
4            I18H    0
5             L5T    0

[Q] Dear colleague, could you confirm whether L21I has protein stability index at or above 2?
[A] 1

[Q] Dear colleague, could you confirm whether G22M has protein stability index at or above 2?
[A] 1

[Q] Dear colleague, could you confirm whether A16C has protein stability index at or above 2?
[A] 1

[Q] Dear colleague, could you confirm whether E13N has protein stability index at or above 2?
[A] 1

[Q] Dear colleague, could you confirm whether P20T has protein stability index at or above 2?
[A] 1

[Q] Dear colleague, could you confirm whether Y12G has protein stability index at or above 2?
[A] 0

[Q] Dear colleague, could you confirm whether I18M has protein stability index at or above 2?
[A] 1

[Q] Dear colleague, could you confirm whether L7Y has protein stability index at or above 2?
[A] 0
